Tested on: human sebocytes
procedureSummary: Sebum suppression: 14C-acetate label remaining in cultured human sebocytes after treatment
Type: cell-based
experimentalParameters: Homo sapiens, 100 μM test agent + 10 μM Retinol; read-out: % of Control
Field: activity at 100 µM. Provide a value for each of the compounds that follow.
Answers are plain numbers, in %.

Give measured activity at 100 µM for every item shown.
1. CN(C)c1cccc(NS(=O)(=O)c2ccc3ccccc3c2)c1 [Compound J]
2. CC(O)c1cccc(NS(=O)(=O)c2ccc(Cl)c([N+](=O)[O-])c2)c1 (centres unmarked) [Compound C]
3. CC(O)c1cccc(NS(=O)(=O)c2cccc3c(N(C)C)cccc23)c1 (centres unmarked) [Compound D]
4. CC(O)c1cccc(NS(=O)(=O)c2c(F)c(F)c(F)c(F)c2F)c1 (centres unmarked) [Compound B]
5. CN(C)c1cccc(NS(=O)(=O)c2ccc(Cl)c([N+](=O)[O-])c2)c1 [Compound H]

2
5.3
1.2
72.2
3.9

src = patent US20020025332A1
